Provenance of the data: patent US4834982A

- METHOD SUMMARY: solubility of furosemide and triamterene
- Type: physicochemical
- MEASUREMENT SETUP: pH 5.5; read-out: solubility
READOUT NAME: solubility (µg/mL)
Numbers only, in µg/mL.

Could you share which solubility value was measured for Nc1nc(N)c2nc(-c3ccccc3)c(N)nc2n1 ? 30

---

- METHOD SUMMARY: solubility of furosemide and triamterene
- Type: physicochemical
- MEASUREMENT SETUP: molar; read-out: solubility
READOUT NAME: solubility
# do not omit the unit; it follows the number

Could you share which solubility value was measured for Nc1nc(N)c2nc(-c3ccccc3)c(N)nc2n1 ? 118 µM
